Measured values drawn from paper PMC9501832 for this set.

endpoint name: melting point

Would you please look over these solved cases?
- compound: "Cc1ccc(NCc2nc3ncccc3[nH]c2=O)cc1 [Compound 8g]"
  melting point: "284 to 286 °C"
- compound: "O=c1[nH]c2cccnc2nc1CN/N=C/c1ccc([N+](=O)[O-])cc1 [Compound 9c]"
  melting point: "238 to 240 °C"
- compound: "O=C(Cc1nc2ncccc2[nH]c1=O)N/N=C/c1ccccc1 [Compound 6a]"
  melting point: "228 to 230 °C"

Entry O=c1[nH]c2cccnc2nc1Cc1n[nH]c(=O)n1-c1ccccc1 [Compound 10a] ; melting point = 220 to 222 °C

Looking up O=C1Nc2cccnc2N2C1=CNN=C2c1ccc(Cl)cc1 [Compound 12b] , I see its melting point listed as 222 to 225 °C

# melting point of O=c1[nH]c2cccnc2nc1CNc1ccccc1 [Compound 8d] = 248 to 250 °C

melting point reported for this compound CCN(CC)Cc1nc2ncccc2[nH]c1=O [Compound 8a] : 262 to 263 °C

Record O=c1[nH]c2cccnc2nc1CNc1ccc(Cl)cc1 [Compound 8h] , field melting point: > 300 °C

// field: melting point; key: O=c1[nH]c2cccnc2nc1CNc1ccc(Br)cc1 [Compound 8i] ; value = > 300 °C

For record O=c1[nH]c2cccnc2nc1CN/N=C/c1ccccc1 [Compound 9a] the listed melting point is 234 to 236 °C

melting point in this record for O=c1[nH]c2cccnc2nc1Cc1n[nH]c(=S)n1-c1ccccc1 [Compound 10c] : 219 to 222 °C

melting point reading for O=C1Nc2cccnc2N2C1=CNN=C2c1ccccc1 [Compound 12a] : 219 to 221 °C

Reported melting point for COc1ccc(C2=NNC=C3C(=O)Nc4cccnc4N32)cc1 [Compound 12d] was 229 to 231 °C

Memo: O=c1[nH]c2cccnc2nc1CN/N=C/c1ccc(Cl)cc1 [Compound 9b] , reported melting point: 237 to 239 °C

GET /value?item= CC(=O)N1N=C(Cc2nc3ncccc3[nH]c2=O)OC1c1ccccc1 (stereo not shown) [Compound 11a] &field=melting point returns 234 to 236 °C

Lab note: O=c1[nH]c2cccnc2nc1CN1CCCCC1 [Compound 8b] gave melting point of 277 to 279 °C

For this compound ( O=C(Cc1nc2ncccc2[nH]c1=O)NN1C(=O)CCC1=O [Compound 7a] ), measured melting point is 210 to 212 °C

Looking up O=C(Cc1nc2ncccc2[nH]c1=O)NNC(=O)Nc1ccc(Cl)cc1 [Compound 5b] , I see its melting point listed as 230 to 232 °C

Data point: O=C(Cc1nc2ncccc2[nH]c1=O)NN1C(=O)c2ccccc2C1=O [Compound 7c] ; melting point = 211 to 213 °C

Note to self: melting point recorded for Cc1cccc(NCc2nc3ncccc3[nH]c2=O)c1 [Compound 8f] was 258 to 260 °C

melting point reported for this compound CC(=O)N1N=C(Cc2nc3ncccc3[nH]c2=O)OC1c1ccc([N+](=O)[O-])cc1 (stereo not shown) [Compound 11b] : 240 to 242 °C

Form: compound = O=C(Cc1nc2ncccc2[nH]c1=O)NNC(=S)Nc1ccccc1 [Compound 5c] ; melting point = 234 to 236 °C

* * *

# reported melting point; entries follow

- compound: "O=C(Cc1nc2ncccc2[nH]c1=O)NNC(=O)Nc1ccccc1"
  melting point: "218 to 220 °C"
- compound: "O=C(Cc1nc2ncccc2[nH]c1=O)NN1C(=O)C=CC1=O"
  melting point: "213 to 215 °C"

Reported melting point of COc1ccc(C2OC(Cc3nc4ncccc4[nH]c3=O)=NN2C(C)=O)cc1 (stereo not drawn) [Compound 11c] : 235 to 237 °C
